CLH for assorted compounds
Assay: Intrinsic clearance in CD1 mouse liver microsomes at 0.5 uM in presence of NADPH incubated upto 30 mins by UPLC-MS/MS analysis
Assay type: ADME, Microsome
Conditions: 0.5 h

{"structure-as-smiles": "O=C(NCCNC1CC1)c1cc(-c2ccc(CN3CCOCC3)cc2)nc2ccc(F)cc12", "readout-units": "mL/min/g", "value-relation-sign": "=", "CLH": 2}
{"structure-as-smiles": "O=C(NCCN1CCCC1)c1cc(-c2ccc(CN3CCOCC3)cc2)nc2ccc(F)cc12", "readout-units": "mL/min/g", "value-relation-sign": "<", "CLH": 0.5}
{"structure-as-smiles": "O=C(NCCN1CCCC1)c1cc(-c2ccc(CN3CCCC3=O)cc2)nc2ccc(F)cc12", "readout-units": "mL/min/g", "value-relation-sign": "=", "CLH": 2}
{"structure-as-smiles": "O=C(NCCN1CCCC1)c1cc(-c2ccc(S(=O)(=O)N3CCOCC3)cc2)nc2ccc(F)cc12", "readout-units": "mL/min/g", "value-relation-sign": "=", "CLH": 1.9}
{"structure-as-smiles": "O=C(NCCN1CCCC1)c1cc(-c2ccc(CN3CCS(=O)(=O)CC3)cc2)nc2ccc(F)cc12", "readout-units": "mL/min/g", "value-relation-sign": "<", "CLH": 0.5}
{"structure-as-smiles": "Cc1ccc(-c2cc(C(=O)NCCN3CCCC3)c3cc(Cl)ccc3n2)cc1", "readout-units": "mL/min/g", "value-relation-sign": "=", "CLH": 2.1}
{"structure-as-smiles": "O=C(NCCN1CCOCC1)c1cc(-c2ccc(CN3CCOCC3)cc2)nc2ccc(F)cc12", "readout-units": "mL/min/g", "value-relation-sign": "<", "CLH": 0.5}
{"structure-as-smiles": "O=C(NCCN1CCCC1)c1cc(NCCCN2CCOCC2)nc2ccc(F)cc12", "readout-units": "mL/min/g", "value-relation-sign": "=", "CLH": 0.8}
{"structure-as-smiles": "O=C(NCCN1CCCC1)c1cc(-c2ccc(CN3CCOCC3)cc2Cl)nc2ccc(F)cc12", "readout-units": "mL/min/g", "value-relation-sign": "=", "CLH": 0.5}
{"structure-as-smiles": "O=C(NCCN1CCCC1)c1cc(-c2ccc(CN3CCOCC3)c(F)c2)nc2ccc(F)cc12", "readout-units": "mL/min/g", "value-relation-sign": "=", "CLH": 1}
{"structure-as-smiles": "O=C(NCCN1CCCC1)c1cc(NCCCCN2CCOCC2)nc2ccc(Cl)cc12", "readout-units": "mL/min/g", "value-relation-sign": "=", "CLH": 2}
{"structure-as-smiles": "CN(CCN1CCCC1)C(=O)c1cc(-c2ccc(CN3CCOCC3)cc2)nc2ccc(F)cc12", "readout-units": "mL/min/g", "value-relation-sign": "<", "CLH": 0.5}
{"structure-as-smiles": "Cc1ccc(-c2cc(C(=O)Nc3cccnc3)c3cc(F)ccc3n2)cc1", "readout-units": "mL/min/g", "value-relation-sign": "=", "CLH": 8.6}
{"structure-as-smiles": "O=C(NCCN1CCCC1)c1cc(N2CCC(N3CCOCC3)CC2)nc2ccc(Cl)cc12", "readout-units": "mL/min/g", "value-relation-sign": "=", "CLH": 2.3}
{"structure-as-smiles": "O=C(NCCN1CCCC1)c1cc(-c2ccc(CN3CCOCC3)cc2F)nc2ccc(F)cc12", "readout-units": "mL/min/g", "value-relation-sign": "<", "CLH": 0.5}
{"structure-as-smiles": "Cc1ccc(-c2cc(C(=O)NCCN3CCOCC3)c3cc(Cl)ccc3n2)cc1", "readout-units": "mL/min/g", "value-relation-sign": "=", "CLH": 11}
{"structure-as-smiles": "O=C(NCCN1CCCC1)c1cc(N2CCC(N3CCOCC3)CC2)nc2ccc(F)cc12", "readout-units": "mL/min/g", "value-relation-sign": "=", "CLH": 0.5}
{"structure-as-smiles": "Cc1ccc(-c2cc(C(=O)NCCN3CCCC3)c3cc(F)ccc3n2)cc1", "readout-units": "mL/min/g", "value-relation-sign": "=", "CLH": 3.4}
{"structure-as-smiles": "O=C(NCCN1CCC1)c1cc(-c2ccc(CN3CCOCC3)cc2)nc2ccc(F)cc12", "readout-units": "mL/min/g", "value-relation-sign": "=", "CLH": 0.5}
{"structure-as-smiles": "Cc1ccc(-c2cc(C(=O)NCCCN(C)C)c3cc(Cl)ccc3n2)cc1", "readout-units": "mL/min/g", "value-relation-sign": "=", "CLH": 1.1}
{"structure-as-smiles": "Cc1ccc(-c2cc(C(=O)Nc3cccnc3)c3cc(Br)ccc3n2)cc1", "readout-units": "mL/min/g", "value-relation-sign": "=", "CLH": 5.3}
{"structure-as-smiles": "O=C(NCCN1CCCC1)c1cc(NCCC2CCOCC2)nc2ccc(Cl)cc12", "readout-units": "mL/min/g", "value-relation-sign": "=", "CLH": 2}
